Item-by-item account of viability at 0.1 µM
System: RIVA cells
Measurement Notes: Real Time Glo viability assay, Betalutin and cell cycle inhibitors (Example 2)
Type: cell-based, human
Recorded Conditions: Homo sapiens, RIVA, drug 100 nM, +Betalutin, Dy5; read-out: Growth inhibition (signal treated/control; 1 = no change)
Could you give me the number in %? Just the number is fine.

Consider the reported viability at 0.1 µM for these molecules:
Cc1csc(-c2nnc(Nc3ccc(Oc4ncccc4-c4ccnc(N)n4)cc3)c3ccccc23)c1; 9
Cc1nc(N)sc1-c1ccnc(Nc2ccc(N3CCOCC3)cc2)n1; 6
C=CCn1c(=O)c2cnc(Nc3ccc(N4CCN(C)CC4)cc3)nc2n1-c1cccc(C(C)(C)O)n1; 24

Next molecule, please.
So, Nc1nc(Nc2ccc(S(N)(=O)=O)cc2)nn1C(=O)c1c(F)cccc1F ? Its viability at 0.1 µM was 4
